Molecular target: MAST2, Q6P0Q8
Sequence (Q6P0Q8 1099-1202): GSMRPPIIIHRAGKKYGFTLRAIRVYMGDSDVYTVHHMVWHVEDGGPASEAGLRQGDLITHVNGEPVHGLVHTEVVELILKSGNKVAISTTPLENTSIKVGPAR
Assay: holdup assay
Parameters: key: below the threshold = too weak to quantify, mostly under pKd 3.1 to 4
Details: plain residues with an end cap or a label only (N-terminal biotin on a linker: ado-ado)
Recorded pKd split into classes group A = under 4, group B = from 4 up to 5, group C = 5 and over

> print(dat)
                        binder  class.name
1   YNNCLEILRV [DCAF7, P61962]     group B
2  NLSIEKETKL [ASNSD1, Q9NWL6]     group C
3   IPLDGETEEL [MYOZ1, Q9NP98]     group B

Input line: Just checking, what class would you give FNSYSLTGYV [CLDN2, P57739] here?
Output line: group A

Input line: Just checking, what class would you give PPYRHRNTVV [ERBB4, Q15303] here?
Output line: group B

Input line: Just checking, what class would you give PEYLGLDVPV [ERBB2, P04626] here?
Output line: group B

Input line: Just checking, what class would you give TKGPRGPTRV [SAPCD1, Q5SSQ6] here?
Output line: group B

Input line: Just checking, what class would you give PRISRSQSEL [CCDC134, Q9H6E4] here?
Output line: group C
